Documented pKi across a set of molecules
Biological target: Enkephalinase (Rattus norvegicus)
Sequence (P07861 1-750): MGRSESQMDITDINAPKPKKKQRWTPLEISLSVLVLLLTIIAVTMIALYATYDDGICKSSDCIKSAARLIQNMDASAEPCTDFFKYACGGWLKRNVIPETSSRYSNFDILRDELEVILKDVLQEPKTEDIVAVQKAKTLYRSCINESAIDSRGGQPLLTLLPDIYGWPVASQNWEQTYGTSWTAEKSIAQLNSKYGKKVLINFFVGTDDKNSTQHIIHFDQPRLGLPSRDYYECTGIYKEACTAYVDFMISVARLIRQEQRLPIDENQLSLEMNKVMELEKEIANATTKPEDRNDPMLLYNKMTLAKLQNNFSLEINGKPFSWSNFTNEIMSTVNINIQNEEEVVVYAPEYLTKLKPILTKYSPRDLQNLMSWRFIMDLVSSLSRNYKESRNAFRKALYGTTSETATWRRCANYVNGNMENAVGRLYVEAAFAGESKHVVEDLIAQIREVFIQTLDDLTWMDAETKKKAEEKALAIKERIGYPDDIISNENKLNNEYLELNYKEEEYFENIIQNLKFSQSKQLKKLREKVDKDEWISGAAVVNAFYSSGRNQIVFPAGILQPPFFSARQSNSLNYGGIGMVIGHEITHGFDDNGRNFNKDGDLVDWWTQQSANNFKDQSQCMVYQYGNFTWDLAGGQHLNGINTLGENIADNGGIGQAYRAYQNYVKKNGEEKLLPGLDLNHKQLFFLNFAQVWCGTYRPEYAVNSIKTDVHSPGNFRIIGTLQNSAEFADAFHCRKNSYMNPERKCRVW
pKi: −log10 of the molar value.

O=C(O)[C@@H]1CCC[C@@H]2c3ccccc3C[C@H](NC(=O)C3(S)CCCC3)C(=O)N21: > 9.70
O=C(O)[C@@H]1CCC[C@@H]2c3ccccc3C[C@H](NC(=O)C3(CCS)Cc4ccccc4C3)C(=O)N21: 9.10

# input for lookup
Query: Query the reported pKi for Enkephalinase (Rattus norvegicus); item: O=C(O)[C@@H]1CCC[C@@H]2c3ccccc3C[C@H](NC(=O)C3(CS)Cc4ccccc4C3)C(=O)N21
Reply: > 9.70
